Assay: Odor threshold and odor value of perfuming compounds (Tables 4 to 10)
Details: Table 8, perfuming compounds having a sweet note
So basically: is Odor Value under 600000? Then class 1. Not under? Then class 0.

{"molecule": "CC/C=C\\CC1=C(C)CCC1=O", "class-name": "class 1"}
{"molecule": "C/C=C/c1ccc(O)c(OC)c1 [2-methoxy-4-[(1E)-1-propen-1-yl]phenol]", "class-name": "class 0"}
{"molecule": "CCCC(=O)OC(C)(C)Cc1ccccc1 [1,1-DIMETHYL-2-PHENYLETHYL BUTANOATE]", "class-name": "class 1"}
{"molecule": "CC(=O)c1ccccc1", "class-name": "class 1"}
{"molecule": "CCCC1CCC(=O)O1 (racemic) [(+−)-4-HEPTANOLIDE]", "class-name": "class 1"}
{"molecule": "CC=CC(=O)C(C)CC (stereo not shown)", "class-name": "class 0"}
{"molecule": "COc1ccc(CCC(C)=O)cc1", "class-name": "class 0"}
{"molecule": "Cc1occc(=O)c1O [3-HYDROXY-2-METHYL-4(4H)-PYRANONE]", "class-name": "class 1"}
{"molecule": "C/C=C(\\C)C(=O)OCCCCCC [hexyl (2E)-2-methyl-2-butenoate]", "class-name": "class 1"}
{"molecule": "CC(C)CCOCCc1ccccc1", "class-name": "class 1"}

---

Assay: Volatility of perfuming compounds (Tables 4 to 10), with top/middle/bottom note type
Assay type: physicochemical
Conditions: Table 9, perfuming compounds having a gourmand note; note type by volatility

{"compound": "C/C=C/c1ccc(O)c(OC)c1 [2-methoxy-4-[(1E)-1-propen-1-yl]phenol]", "Type": "Bottom"}
{"compound": "OCCc1ccccc1", "Type": "Top"}
{"compound": "CCCCCC(=O)OCC [ETHYL HEXANOATE]", "Type": "Top"}
{"compound": "C=CCOC(=O)CCCCCC [ALLYL HEPTANOATE]", "Type": "Top"}
{"compound": "CCCCCCCC1CCCC(=O)O1 (racemic) [(+−)-6-heptyltetrahydro-2H-pyran-2-one]", "Type": "Bottom"}

---

Assay: Volatility of perfuming compounds (Tables 4 to 10), with top/middle/bottom note type
Format: physicochemical
Settings: Table 7, citrus note; top, middle or bottom note
Where a name gives a salt, the structure may show the parent alone.
recorded-endpoint: Type

{"molecule": "O=C1CCCCCCC/C=C/CCCCCCO1 [(10E)-oxacycloheptadec-10-en-2-one]", "recorded-endpoint": "Type", "recorded-value": "Bottom"}
{"molecule": "CCCCCCCOC(C)=O [heptyl acetate]", "recorded-endpoint": "Type", "recorded-value": "Top"}
{"molecule": "CC(=O)OC(C)c1ccccc1 (racemic) [(+−)-1-PHENYLETHYL ACETATE]", "recorded-endpoint": "Type", "recorded-value": "Top"}
{"molecule": "O=COCCc1ccccc1 [2-PHENYLETHYL FORMATE]", "recorded-endpoint": "Type", "recorded-value": "Top"}
{"molecule": "O=C(Cc1ccccc1)OCCc1ccccc1 [2-PHENYLETHYL PHENYLACETATE]", "recorded-endpoint": "Type", "recorded-value": "Bottom"}
{"molecule": "CCCCCCCCC=O [nonanal]", "recorded-endpoint": "Type", "recorded-value": "Top"}
{"molecule": "CC1CCC(=O)O1 (racemic) [(+−)-4-PENTANOLIDE]", "recorded-endpoint": "Type", "recorded-value": "Top"}
{"molecule": "CCCCCC(C#N)CCC (racemic) [(+−)-2-propylheptanenitrile]", "recorded-endpoint": "Type", "recorded-value": "Top"}
{"molecule": "CCCCC/C=C/CCC=O [(E)-4-DECENAL]", "recorded-endpoint": "Type", "recorded-value": "Top"}
{"molecule": "CCCCCC=O [hexanal]", "recorded-endpoint": "Type", "recorded-value": "Top"}
{"molecule": "CC(C)(O)CCC1CCCCC1 [4-CYCLOHEXYL-2-METHYL-2-BUTANOL]", "recorded-endpoint": "Type", "recorded-value": "Middle"}
{"molecule": "CC(C)=CCC/C(C)=C\\CO", "recorded-endpoint": "Type", "recorded-value": "Middle"}
{"molecule": "C=C(C)C1CC=C(C)CC1 (single isomer, unassigned; (+)) [(+)-LIMONENE]", "recorded-endpoint": "Type", "recorded-value": "Top"}
{"molecule": "CC(C)=CCCC(C)CCOCC=O (racemic)", "recorded-endpoint": "Type", "recorded-value": "Bottom"}
{"molecule": "CCC/C=C/C=O [(2E)-2-HEXENAL]", "recorded-endpoint": "Type", "recorded-value": "Top"}
{"molecule": "C=CC(C)(CCC=C(C)C)OC(C)=O (racemic)", "recorded-endpoint": "Type", "recorded-value": "Top"}
{"molecule": "COCC(C)Cc1ccccc1 (racemic) [(+−)-(3-methoxy-2-methylpropyl)benzene]", "recorded-endpoint": "Type", "recorded-value": "Top"}
{"molecule": "C/C=C/c1ccc(OC(C)=O)c(OC)c1", "recorded-endpoint": "Type", "recorded-value": "Bottom"}
{"molecule": "CCCCC[C@H]1C(=O)CC[C@@H]1CC(=O)OC (racemic)", "recorded-endpoint": "Type", "recorded-value": "Bottom"}
{"molecule": "CC/C=C\\CCOC(=O)c1ccccc1 [(3Z)-3-hexen-1-yl benzoate]", "recorded-endpoint": "Type", "recorded-value": "Bottom"}
{"molecule": "O=C(OCc1ccccc1)c1ccccc1 [BENZYL BENZOATE]", "recorded-endpoint": "Type", "recorded-value": "Bottom"}
{"molecule": "CCC(C)C(=O)OC(C)C (racemic) [(+−)-ISOPROPYL 2-METHYLBUTANOATE]", "recorded-endpoint": "Type", "recorded-value": "Top"}
{"molecule": "CCCOC(=O)[C@H](C)OC(C)(C)CC", "recorded-endpoint": "Type", "recorded-value": "Top"}

---

Assay: Volatility of perfuming compounds (Tables 4 to 10), with top/middle/bottom note type
Format: physicochemical
Details: Table 9, perfuming compounds having a gourmand note; note type by volatility

{"compound": "C=C1CCCC(C)(C)C1C(=O)/C=C/C (racemic)", "Type": "Top"}
{"compound": "CCCCCCC1CCC(=O)O1 (racemic) [(+−)-4-DECANOLIDE]", "Type": "Bottom"}
{"compound": "CCCCOC(C)=O [BUTYL ACETATE]", "Type": "Top"}
{"compound": "CCCCC[C@@H]1OC(=O)C[C@H]1C (racemic) [(+−)-TRANS-3-METHYL-4-NONANOLIDE]", "Type": "Bottom"}
{"compound": "CC(=O)OCCc1ccccc1 [2-PHENYLETHYL ACETATE]", "Type": "Top"}
{"compound": "CCCCCCC1CCCC(=O)O1 (stereo not drawn) [6-hexyltetrahydro-2H-pyran-2-one]", "Type": "Bottom"}

---

Assay: Volatility of perfuming compounds (Tables 4 to 10), with top/middle/bottom note type
Type: physicochemical
Details: Table 8, perfuming compounds having a sweet note
Below is a list of entries, each paired with its recorded Volatility value.
recorded-endpoint: Volatility

{"molecule": "CCCCC[C@@H]1OC(=O)C[C@H]1C (racemic) [(+−)-TRANS-3-METHYL-4-NONANOLIDE]", "recorded-endpoint": "Volatility", "recorded-value": "21.05 μg/l air"}
{"molecule": "O=C1CCCCCCCCCCC(=O)OCCO1", "recorded-endpoint": "Volatility", "recorded-value": "0.46 μg/l air"}
{"molecule": "CCc1occc(=O)c1O [2-ETHYL-3-HYDROXY-4(4H)-PYRANONE]", "recorded-endpoint": "Volatility", "recorded-value": "48.86 μg/l air"}
{"molecule": "CC1OCCC12NCCS2 (racemic)", "recorded-endpoint": "Volatility", "recorded-value": "52.47 μg/l air"}
{"molecule": "CCOC(=O)CC1(C)OCCO1 [ETHYL 2-METHYL-1,3-DIOXOLANE-2-ACETATE]", "recorded-endpoint": "Volatility", "recorded-value": "479.20 μg/l air"}
{"molecule": "CCCCCCCC1CCCC(=O)O1 (racemic) [(+−)-6-heptyltetrahydro-2H-pyran-2-one]", "recorded-endpoint": "Volatility", "recorded-value": "0.90 μg/l air"}
{"molecule": "SCc1ccco1", "recorded-endpoint": "Volatility", "recorded-value": "29677.31 μg/l air"}
{"molecule": "CC(=O)c1ccccc1", "recorded-endpoint": "Volatility", "recorded-value": "1728.98 μg/l air"}
{"molecule": "Cc1ncsc1CCO", "recorded-endpoint": "Volatility", "recorded-value": "2.36 μg/l air"}
{"molecule": "CCCCCCC1CCCC(=O)O1 (stereo not shown) [6-hexyltetrahydro-2H-pyran-2-one]", "recorded-endpoint": "Volatility", "recorded-value": "4.64 μg/l air"}

---

Entries and their Volatility (μg/l air) values follow.
Experiment: Volatility of perfuming compounds (Tables 4 to 10), with top/middle/bottom note type
Type: physicochemical
Conditions: perfuming compounds having a green note
Structures can show the parent of a compound that is named as a salt.
recorded-endpoint: Volatility (μg/l air)

{"molecule": "CC(=O)OCC=C(C)C [3-methyl-2-buten-1-yl acetate]", "recorded-endpoint": "Volatility (μg/l air)", "recorded-value": 27705.98}
{"molecule": "CCCCSCCCC [DIBUTYL SULFIDE]", "recorded-endpoint": "Volatility (μg/l air)", "recorded-value": 2766.10}
{"molecule": "CCCCCC=O", "recorded-endpoint": "Volatility (μg/l air)", "recorded-value": 68294.85}
{"molecule": "C=CCCC(=O)C1=CCCC(C)(C)C1", "recorded-endpoint": "Volatility (μg/l air)", "recorded-value": 38.43}
{"molecule": "CC(C)=CCCC(C)CCOC=O (racemic) [(+−)-3,7-DIMETHYL-6-OCTENYL FORMATE]", "recorded-endpoint": "Volatility (μg/l air)", "recorded-value": 262.84}
{"molecule": "C/C=C/C(=O)C1C(C)=CCCC1(C)C (racemic)", "recorded-endpoint": "Volatility (μg/l air)", "recorded-value": 110.53}
